# EXPERIMENT DESCRIPTION: reversal of MRP1-mediated doxorubicin resistance, pilot screen, H69AR cells, doxorubicin co-treatment (AID 601)
# CONDITION CONTEXT: H69AR cells + 2 uM doxorubicin, CellTiter-Glo, 72 h; at 10 µM; stronger effect = higher value

- COMPOUND: "CC1CC(C)CN(CC(=O)Nc2ccc(S(N)(=O)=O)cc2)C1 (stereo not drawn)"
  differential viability (reversal) / %: 2.1
- COMPOUND: "Cc1c(O)c(CN2CCCC(C)C2)cc2c3c(c(=O)oc12)CCC3 (stereo not drawn)"
  differential viability (reversal) / %: -2.96
- COMPOUND: "CCCn1c(SCC(=O)Nc2cc(C)on2)nc2c1c(=O)n(C)c(=O)n2C"
  differential viability (reversal) / %: 15.7
- COMPOUND: "NC(=O)N1c2ccccc2C=Cc2ccccc21"
  differential viability (reversal) / %: 9.74
- COMPOUND: "CCOC(=O)N1CCC(NC(=O)CCC(=O)N2CC(C)Oc3ccc(Cl)cc32)CC1 (stereo not drawn)"
  differential viability (reversal) / %: 6.71
- COMPOUND: "CCN=C1SC(CC(=O)Nc2ccccc2OCC)C(=O)N1CC (stereo not drawn)"
  differential viability (reversal) / %: 8.11
- COMPOUND: "CCOc1cc(C(=O)Nc2c3c(nn2C(C)(C)C)CS(=O)C3)cc(OCC)c1OCC (stereo not drawn)"
  differential viability (reversal) / %: 7.14
- COMPOUND: "O=C(O)C1CCCN1C(=O)c1cccs1 (stereo not drawn)"
  differential viability (reversal) / %: 3.11
- COMPOUND: "C=CCC1(O)C(=O)Nc2ccccc21 (stereo not drawn)"
  differential viability (reversal) / %: 18.9
- COMPOUND: "COc1ccc(/C=N/n2cc(-c3ccc(OC)cc3)nc2N)cc1"
  differential viability (reversal) / %: -10.3
- COMPOUND: "CCOC(=O)CNC(=O)CSc1nc(N(C)C)nc(N2CCOCC2)n1"
  differential viability (reversal) / %: 2.04
- COMPOUND: "CN(CC(=O)Nc1ccncc1)S(=O)(=O)c1ccccc1"
  differential viability (reversal) / %: 11.9
- COMPOUND: "Cc1ccc(-c2nc3cc(N)ccc3o2)cc1"
  differential viability (reversal) / %: -1.81

---

# EXPERIMENT DESCRIPTION: reversal of MRP1-mediated doxorubicin resistance, pilot screen, H69AR cells, doxorubicin co-treatment (AID 601)
# CONDITION CONTEXT: H69AR cells + 2 uM doxorubicin, CellTiter-Glo, 72 h; measured here: viability with 2 uM doxorubicin; at 10 µM; stronger effect = lower value
MEASURED PARAMETER: viability

- MOLECULE: "Cc1cccc(N2C(=O)CC(N(C(=O)c3ccco3)c3cccc(C)c3)C2=O)c1 (centres undefined)"
  ENDPOINT VALUE: "102%"
- MOLECULE: "CCOC(=O)c1cnn(-c2sc(C(=O)OCC)c(C)c2C(=O)OCC)c1N"
  ENDPOINT VALUE: "41.6%"
- MOLECULE: "CN1[C@@H](CC(=O)c2ccccc2)CCC[C@H]1C[C@H](O)c1ccccc1"
  ENDPOINT VALUE: "88.7%"
- MOLECULE: "Cc1cc(C(F)(F)F)c2c(C)nn(CCc3nn[nH]n3)c2n1"
  ENDPOINT VALUE: "98.1%"
- MOLECULE: "O=c1c2[nH]c3cccc(Cl)c3c2ncn1CCN1CCCCC1"
  ENDPOINT VALUE: "88.6%"
- MOLECULE: "O=C(Cc1ccccc1)Nc1nnc(-c2cccs2)s1"
  ENDPOINT VALUE: "67.1%"
- MOLECULE: "CCOc1ccccc1N(CC(=O)N1CCOCC1)S(=O)(=O)c1ccccc1"
  ENDPOINT VALUE: "97.8%"
- MOLECULE: "CC1CCCN(S(=O)(=O)c2ccc(C(=O)Nc3nnc(-c4ccccc4Cl)o3)cc2)C1 (centres undefined)"
  ENDPOINT VALUE: "37.9%"
- MOLECULE: "CCOC(=O)CC(C#N)c1cn(C)c2ccccc12 (centres undefined)"
  ENDPOINT VALUE: "92.2%"

---

Entries and their measured inhibition follow.
# EXPERIMENT DESCRIPTION: growth suppression of yeast trafficking mutant, preliminary HTS, modulators of trafficking downstream of Golgi apparatus project, 1536-format plate, OD 615 nm (AID 637)
# CONDITION CONTEXT: yeast transport mutant growth, absorbance 615 nm, 18 h; stronger effect = higher value

- COMPOUND: "O=C(c1ccc2c(c1)OCO2)N1CCNc2ccccc2C1"
  UNIT INFO: "%"
  inhibition: 3.17
- COMPOUND: "COC(=O)c1c(N)sc(C(=O)N2CCOCC2)c1C"
  UNIT INFO: "%"
  inhibition: -5.87
- COMPOUND: "COc1ccccc1CN1CC(C(=O)NCc2cccnc2)CC1=O (stereo not drawn)"
  UNIT INFO: "%"
  inhibition: 3.77
- COMPOUND: "CCC(=O)OC1(C#CCOc2ccc(OC)cc2)CCN(C)CC1"
  UNIT INFO: "%"
  inhibition: 1.64
- COMPOUND: "Cc1[nH]c2c(C)cccc2c(=O)c1Br"
  UNIT INFO: "%"
  inhibition: 6.07
- COMPOUND: "Cn1c(=O)cc(SCC(=O)NCc2cccnc2)c2ccccc21"
  UNIT INFO: "%"
  inhibition: -1.82
- COMPOUND: "Cc1nnc(Nc2ccccn2)c2ccccc12"
  UNIT INFO: "%"
  inhibition: -4.84
- COMPOUND: "CN(CC(=O)N1CCCc2c1c(=O)oc1ccc(O)cc21)Cc1ccccc1"
  UNIT INFO: "%"
  inhibition: 0.36
- COMPOUND: "O=C(Cn1c(=O)oc2ccccc21)Nc1ccc(S(=O)(=O)N2CCCCC2)cc1"
  UNIT INFO: "%"
  inhibition: -2.58
- COMPOUND: "COc1cc(NS(=O)(=O)c2ccc(N)cc2)ncn1"
  UNIT INFO: "%"
  inhibition: 2.5
- COMPOUND: "Cc1ccc(CCNC(=O)C2CCC(=O)N2C2CCCC2)cc1 (stereo not drawn)"
  UNIT INFO: "%"
  inhibition: 0
- COMPOUND: "CCn1c(SCC(=O)N2CCN(c3ccc(Cl)cc3)CC2)nc2ccccc2c1=O"
  UNIT INFO: "%"
  inhibition: 25.5
- COMPOUND: "O=S(=O)(c1ccc(S(=O)(=O)N(Cc2ccco2)Cc2ccccc2Cl)cc1)N1CCCC1"
  UNIT INFO: "%"
  inhibition: 8.1
- COMPOUND: "Cn1c(=O)[nH]c(=O)c2c1nc(N1CCNCC1)n2Cc1cccc2ccccc12"
  UNIT INFO: "%"
  inhibition: 4.76
- COMPOUND: "O=C(NCN1CCCCC1)c1cccnc1"
  UNIT INFO: "%"
  inhibition: 6.07
- COMPOUND: "CCOc1cccc(C(=O)N(Cc2ccco2)C2CCS(=O)(=O)C2)c1 (stereo not drawn)"
  UNIT INFO: "%"
  inhibition: -1.09
- COMPOUND: "Cc1sc2nc(SCC(=O)NCc3ccco3)n(CCc3ccccc3)c(=O)c2c1C"
  UNIT INFO: "%"
  inhibition: 0.82
- COMPOUND: "COC(=O)c1cn(-c2ccccc2)nc1C(=O)OC"
  UNIT INFO: "%"
  inhibition: -1.97

---

# EXPERIMENT DESCRIPTION: SK-BR-3 cell growth inhibitors, pilot screen, 24 h, human (AID 572);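 further: compound exposure lasted between 18 and 24 h rather than exactly 24 h; 100% = carrier-treated control wells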
# CONDITION CONTEXT: SK-BR-3 viability, CellTiter-Glo luminescence, at 10 µM, stronger effect = lower value
Entries and their measured viability follow.
MEASURED PARAMETER: viability (%)

- SMI: "Cc1nc2ccccc2c(=O)n1NC(=O)Nc1ccccc1"
  ENDPOINT VALUE: 111
- SMI: "COc1cccc(OCCSc2nnc3sc4ccccc4n23)c1"
  ENDPOINT VALUE: 86
- SMI: "O=C(Nc1ccc(-c2nc3ncccc3o2)cc1)c1ccc(Br)o1"
  ENDPOINT VALUE: 97

---

# EXPERIMENT DESCRIPTION: 384-well plate pilot, post-Golgi transport modulator project, inhibition of yeast transport mutant growth (AID 636)
# CONDITION CONTEXT: absorbance 615 nm, about 18 h, stronger effect = higher value

- COMPOUND: "CCn1cc(C(=O)O)c(=O)c2ccc(C)nc21"
  inhibition (%): -0.78
- COMPOUND: "CCCCn1c(CN(C)Cc2ccccc2)nc2c1c(=O)n(C)c(=O)n2C"
  inhibition (%): -3.24
- COMPOUND: "COc1cccc(OC)c1OCCCSc1nc(C)cc(=O)[nH]1"
  inhibition (%): -4
- COMPOUND: "O=C(CN1CCN(c2ccc(F)cc2)CC1)OCc1ccccc1"
  inhibition (%): -4.4
- COMPOUND: "CCSc1nc(-c2ccc(OC)cc2)ccc1C#N"
  inhibition (%): -1.69
- COMPOUND: "Cc1ccc(OCC(=O)N2CCN(C(=O)CCC3CCCC3)CC2)cc1"
  inhibition (%): -6.89
- COMPOUND: "CCOC(=O)N1CCC(N(C(=O)Nc2cccc(OC)c2)C(C)CC)CC1 (stereo not drawn)"
  inhibition (%): -2.21
- COMPOUND: "CCOC(=O)NC(=O)CSc1nnc(C)s1"
  inhibition (%): -4.08
